These entries and their values trace back to PubChem BioAssay (NCI).

Catalogue of molecules with associated growth inhibition
# protocol: NCI Yeast Anticancer Drug Screen. Data for the bub3 strain (AID 167)
# run_conditions: S. cerevisiae bub3 mutant strain, at 50.0 µM, active compounds read high
Compounds without any hit were thinned out: in the full panel of roughly 79,000, 15% have a hit. Calls of active or inactive are those of the source. Cut-off read from the data, not from the text of the source: active = growth inhibition above about 70%; inactive = the rest.
reported_metric: growth inhibition

molecule	reported_metric	data_value
Nc1cccc(SC2CC(=O)N(c3ccc4c(c3)OCO4)C2=O)c1 (stereo not given)	growth inhibition	91.7% (active)
COc1ccc(C(=O)CCl)c(O)c1OC	growth inhibition	5.7% (inactive)
O=C(c1ccccc1)[C@H]1Nc2ccc(Cl)cc2[C@H]2c3ccccc3O[C@H]21	growth inhibition	-1.45% (inactive)
CN(C)c1ccc(/C=c2\sc3nnc(Cc4ccccc4)n3c2=O)cc1	growth inhibition	11.1% (inactive)
FS(F)(F)(F)(F)c1cccc(NC(=S)SCc2ccc(Cl)cc2)c1	growth inhibition	6.8% (inactive)
CCCCCCCC[C@]1(O)C[C@H]2[C@@H]3CCc4cc(OC)ccc4[C@H]3CC[C@]2(C)[C@H]1O	growth inhibition	-11.2% (inactive)
O=C1C(N=Nc2ccccc2)Sc2nc3ccccc3n21 (stereo not given)	growth inhibition	4.5% (inactive)
CC12CC3CC(C1)CC(NCCO)(C3)C2	growth inhibition	-5.45% (inactive)
COC(=O)c1ccc2c(ccc[n+]2C)c1	growth inhibition	-3.45% (inactive)
CN(C)c1ccc(/C=C/c2ccccc2)cc1	growth inhibition	-16.2% (inactive)
OC(c1nc2ccccc2s1)(C(F)(F)F)C(F)(F)F	growth inhibition	-13% (inactive)
COC(=O)N/N=C/c1oc(-c2ccccc2)c(-c2ccccc2)c1[N+](=O)[O-]	growth inhibition	-10.1% (inactive)
COc1cccc2c1CC/C(=C\c1ccccn1)C2=O	growth inhibition	98.8% (active)
N#CC1(C(N)=O)OC1c1ccccc1Cl (stereo not given)	growth inhibition	-7.1% (inactive)
COc1ccc(C2=C(Cl)c3cc(OC)c(OC)cc3C2=O)cc1OC	growth inhibition	-9.85% (inactive)
CC(C)=CCNc1ncnc2c1c(C#N)cn2C1OC(CO)C(O)C1O (stereo not given)	growth inhibition	-17.5% (inactive)
O=C(O)CC/C(=N\Nc1ccc([N+](=O)[O-])cc1[N+](=O)[O-])c1ccccc1	growth inhibition	16.2% (inactive)
CCCCCCCCCCCCOC(=O)NCCCl	growth inhibition	-27.6% (inactive)
Cc1ccc(C(=O)/C=C/c2ccco2)cc1	growth inhibition	34.5% (inactive)
FC(F)(F)C1=NCCN1	growth inhibition	-2.45% (inactive)
O=C(Nc1cccc(Cl)c1)Oc1ccccc1	growth inhibition	15.3% (inactive)
COc1ccc(C2=C(c3ccccc3)C(C)(C)Oc3ccc4ccccc4c32)cc1	growth inhibition	-2.8% (inactive)
Cc1nc2cccc([N+](=O)[O-])c2s1	growth inhibition	17.4% (inactive)
CN=CN(C)c1c2ccccc2nc2ccccc12	growth inhibition	9.75% (inactive)
CC1CN=C(N(Cc2ccccc2)C(=O)Nc2ccc(Cl)c(Cl)c2)S1 (stereo not given)	growth inhibition	-0.65% (inactive)

----------
# protocol: NCI Yeast Anticancer Drug Screen. Data for the cln2 rad14 strain (AID 165);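 note: 0% = growth equal to vehicle treated cultures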
# run_conditions: S. cerevisiae cln2 rad14 strain, at 50.0 µM, active compounds read high
About 79,000 compounds went through this panel and 15% of them were active in at least one assay; those are over-represented in the sample as a whole. Where a SMILES comes first, the peptide text is derived from it. Bridges are numbered along the chain shown (N, C = ends). The star is where a group is joined. Cbz = O=C(OCc1ccccc1)*; OBn = c1ccc(CO*)cc1
growth inhibition vs -10%: at or above is condition met, below is condition not met.

molecule	answer_label
c1ccc(Oc2nnc3c4ccccc4ccn23)cc1	condition met
CCOc1c(N=Nc2ccccc2OC)c(-c2ccccc2)nn1C(=S)S	condition met
O=C1CN(c2cccc(C(F)(F)F)c2)C(=O)CN1/N=C/c1ccc(O)c(O)c1	condition met
CN(C(=O)C12C3C4C1C1C2C3C41C(N)=O)C(C)(C)C (stereo not drawn)	condition met
OCCNc1nc(NCCO)c2cn[nH]c2n1	condition not met
CCS1=C2C(=O)CC(C)(C)CC2=Nc2ccccc21 (stereo not drawn)	condition met
CCOc1ccc(NC(=S)NC=C(C#N)C#N)cc1	condition met
Cc1cc(S(=O)(=O)Nc2cc(N)[nH]n2)c(SCc2nc(N)nc(N(C)C)n2)cc1Cl	condition met
Cc1ccc2nc(C)cc(NC(=O)c3ccccc3)c2c1	condition not met
N#CC(CN1CCCCC1)c1ccccc1 (stereo not drawn)	condition not met
BrC1(C2(Br)N(c3ccccc3)CCN2c2ccccc2)N(c2ccccc2)CCN1c1ccccc1	condition met
CC(C)c1ccc(/C=C2\C=Nc3ccccc32)cc1	condition met
COC(=O)C1CCC(=O)NCCCCC(NC(=O)C(CC(=O)OCc2ccccc2)NC(=O)OCc2ccccc2)C(=O)N1 (stereo not drawn) (Cbz-Asp(OBn)-Lys-Glu-OMe; lactam 2-3; configuration not given here)	condition met
C#CCN(CC#C)C(=O)Nc1ccc(Cl)cc1	condition not met
C/C=C/C1OCC(C)([N+](=O)[O-])CO1 (stereo not drawn)	condition met
CCCNc1cc2c(cc1Br)-c1ccccc1C2=O	condition not met
Cc1nc(C(N)=O)c(=O)[nH]c1C	condition not met
CC(NC1=CC(=O)c2cccnc2C1=O)C(O)c1ccccc1 (stereo not drawn)	condition met
COc1cc(NC(=O)Nc2cccc(C(C)=O)c2)c(OC)cc1Cl	condition not met
CCC(=O)C(C)C(=O)CCC(=O)Nc1cc(Cl)ccc1Cl (stereo not drawn)	condition met
COc1ccc(-c2onc3ccc(Cl)cc23)cc1	condition not met
O=C1c2ccccc2C(=O)c2c1nnn2-c1ccccc1	condition met
OCCNCN(CNCCO)c1nc(N(CNCCO)CNCCO)nc(N(CNCCO)CNCCO)n1	condition not met
